Hello, the source for this data is ChEMBL document CHEMBL5543097, in case you need it.

Below, each entry is listed alongside its reported MIC.
# Tested on: Moraxella catarrhalis
# assay_overview: Antibacterial activity against Moraxella catarrhalis BCA 19-5 assessed as inhibition of bacterial growth incubated for 24 hrs by CLSI based broth microdilution method
# Type: functional
# test_conditions: Moraxella catarrhalis, BCA 19-5, 24 h, read-out: MIC
Express it in mg/L; write the number only.

CC[C@H]1OC(=O)[C@@](C)(F)C(=O)[C@H](C)[C@@H](O[C@@H]2O[C@H](C)C[C@H](N(C)C)[C@H]2O)[C@](C)(OC)C[C@@H](C)C(=O)[C@H](C)[C@H]2N(CCCOC(=O)Nc3ccc(Cl)cc3C)C(=O)O[C@]12C | 0.125
CC[C@H]1OC(=O)[C@@](C)(F)C(=O)[C@H](C)[C@@H](O[C@@H]2O[C@H](C)C[C@H](N(C)C)[C@H]2O)[C@](C)(OC)C[C@@H](C)C(=O)[C@H](C)[C@H]2N(CCCOC(=O)Nc3cccnc3)C(=O)O[C@]12C | 0.06
CC[C@H]1OC(=O)[C@H](C)C(=O)[C@H](C)[C@@H](O[C@@H]2O[C@H](C)C[C@H](N(C)C)[C@H]2O)[C@](C)(OC)C[C@@H](C)C(=O)[C@H](C)[C@H]2N(CCCCn3cnc(-c4cccnc4)c3)C(=O)O[C@]12C | 0.25
CC[C@H]1OC(=O)[C@@](C)(F)C(=O)[C@H](C)[C@@H](O[C@@H]2O[C@H](C)C[C@H](N(C)C)[C@H]2O)[C@](C)(OC)C[C@@H](C)C(=O)[C@H](C)[C@H]2N(CCCOC(=O)Nc3ccc4c(c3)CCO4)C(=O)O[C@]12C | 0.06
CC[C@H]1OC(=O)[C@@](C)(F)C(=O)[C@H](C)[C@@H](O[C@@H]2O[C@H](C)C[C@H](N(C)C)[C@H]2O)[C@](C)(OC)C[C@@H](C)C(=O)[C@H](C)[C@H]2N(CCCOC(=O)Nc3cccs3)C(=O)O[C@]12C | 0.25

compound "CC[C@H]1OC(=O)[C@@](C)(F)C(=O)[C@H](C)[C@@H](O[C@@H]2O[C@H](C)C[C@H](N(C)C)[C@H]2O)[C@](C)(OC)C[C@@H](C)C(=O)[C@H](C)[C@H]2N(CCCOC(=O)Nc3ccc(C(C)C)cc3)C(=O)O[C@]12C" , MIC observed: 0.5

compound "CC[C@H]1OC(=O)[C@@](C)(F)C(=O)[C@H](C)[C@@H](O[C@@H]2O[C@H](C)C[C@H](N(C)C)[C@H]2O)[C@](C)(OC)C[C@@H](C)C(=O)[C@H](C)[C@H]2N(CCCOC(=O)Nc3ccc(C)cc3)C(=O)O[C@]12C" , MIC observed: 0.03

compound "CC[C@H]1OC(=O)[C@@](C)(F)C(=O)[C@H](C)[C@@H](O[C@@H]2O[C@H](C)C[C@H](N(C)C)[C@H]2O)[C@](C)(OC)C[C@@H](C)C(=O)[C@H](C)[C@H]2N(CCCOC(=O)Nc3c(F)cccc3F)C(=O)O[C@]12C" , MIC observed: 0.122

compound "CC[C@H]1OC(=O)[C@@](C)(F)C(=O)[C@H](C)[C@@H](O[C@@H]2O[C@H](C)C[C@H](N(C)C)[C@H]2O)[C@](C)(OC)C[C@@H](C)C(=O)[C@H](C)[C@H]2N(CCCOC(=O)Nc3cc(C)ccc3C)C(=O)O[C@]12C" , MIC observed: 0.125

compound "CC[C@H]1OC(=O)[C@@](C)(F)C(=O)[C@H](C)[C@@H](O[C@@H]2O[C@H](C)C[C@H](N(C)C)[C@H]2O)[C@](C)(OC)C[C@@H](C)C(=O)[C@H](C)[C@H]2N(CCCOC(=O)Nc3cccc(C)c3C)C(=O)O[C@]12C" , MIC observed: 0.125

compound "CC[C@H]1OC(=O)[C@@](C)(F)C(=O)[C@H](C)[C@@H](O[C@@H]2O[C@H](C)C[C@H](N(C)C)[C@H]2O)[C@](C)(OC)C[C@@H](C)C(=O)[C@H](C)[C@H]2N(CCCOC(=O)Nc3ccc(F)cc3)C(=O)O[C@]12C" , MIC observed: 0.03
